Target: T1, cMSLN-His-Avi (cynomolgus, single biotin on the Avi tag in the biotinylated form)
T1 construct: Monomeric; also called cyno MSLN-His-Avi; cMSLN-Avi-His
T1 chain: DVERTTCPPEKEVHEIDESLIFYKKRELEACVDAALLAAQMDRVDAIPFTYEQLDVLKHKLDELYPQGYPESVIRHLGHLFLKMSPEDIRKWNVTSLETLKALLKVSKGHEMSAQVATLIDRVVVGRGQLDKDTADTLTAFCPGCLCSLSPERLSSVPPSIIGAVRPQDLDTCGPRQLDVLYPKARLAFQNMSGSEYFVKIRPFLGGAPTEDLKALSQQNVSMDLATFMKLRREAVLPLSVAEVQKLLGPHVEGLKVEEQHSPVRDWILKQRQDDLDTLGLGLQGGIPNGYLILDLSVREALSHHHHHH
Test: SPR, mAb2 captured on Protein G, cMSLN-His-Avi in solution
Recorded measurements of Kd, one per entry
resultType: Kd (nM)

| binder | valueObserved |
| --- | --- |
| FS22-172-003-AA/FS28-256 (bispecific antibody, human IgG1, kappa, L234A L235A, V domains shown, IgG1 mAb^2 with LALA) VH: EVQLLESGGGLVQPGGSLRLSCAASGFTFTNTYMSWVRQAPGKGLEWVSNISPTYSTTNYADSVKGRFTISRDNSKNTLYLQMNSLRAEDTAVYYCARYNSYQGGLDYWGQGTLVTVSS VL: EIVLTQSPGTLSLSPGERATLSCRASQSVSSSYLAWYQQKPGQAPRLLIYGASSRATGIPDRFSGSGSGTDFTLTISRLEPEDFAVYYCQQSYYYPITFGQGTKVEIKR | 848 |
| FS22-172-003-AA/FS28-256-021 (bispecific antibody, human IgG1, kappa, L234A L235A, V domains shown, IgG1 mAb^2 with LALA) VH: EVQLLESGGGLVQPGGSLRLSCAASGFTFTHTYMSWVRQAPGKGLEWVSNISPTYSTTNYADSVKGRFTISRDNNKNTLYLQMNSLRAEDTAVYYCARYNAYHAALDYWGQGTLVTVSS VL: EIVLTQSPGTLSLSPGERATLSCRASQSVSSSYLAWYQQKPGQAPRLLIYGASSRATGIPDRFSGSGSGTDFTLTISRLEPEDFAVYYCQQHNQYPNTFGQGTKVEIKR | 14.2 |
| FS22-172-003-AA/FS28-256-026 (bispecific antibody, human IgG1, kappa, L234A L235A, V domains shown, IgG1 mAb^2 with LALA) VH: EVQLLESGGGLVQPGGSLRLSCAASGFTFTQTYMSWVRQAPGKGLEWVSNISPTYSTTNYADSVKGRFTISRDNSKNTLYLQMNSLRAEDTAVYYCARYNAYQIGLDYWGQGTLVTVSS VL: EIVLTQSPGTLSLSPGERATLSCRASQSVSSSYLAWYQQKPGQAPRLLIYGASSRATGIPDRFSGSGSGTDFTLTISRLEPEDFAVYYCQQALGYPHTFGQGTKVEIKR | 33.1 |
| FS22-172-003-AA/FS28-024-051 (bispecific antibody, human IgG1, kappa, L234A L235A, V domains shown, IgG1 mAb^2 with LALA) VH: EVQLLESGGGLVQPGGSLRLSCAASGFTLSYSSMSWVRQAPGKGLEWVSFITPSTGYTHYADSVKGRFTISRDNSKNTLYLQMNSLRAEDTAVYYCARRALIFDYWGQGTLVTVSS VL: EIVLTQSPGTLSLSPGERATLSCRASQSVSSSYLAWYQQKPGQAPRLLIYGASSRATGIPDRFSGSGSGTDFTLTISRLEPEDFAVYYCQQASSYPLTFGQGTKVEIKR | 153 |
| FS22-172-003-AA/FS28-024 (bispecific antibody, human IgG1, kappa, L234A L235A, V domains shown, IgG1 mAb^2 with LALA; also called FS28-024 in CD137 mAb^2 format) VH: EVQLLESGGGLVQPGGSLRLSCAASGFTLSYSSMSWVRQAPGKGLEWVSFITPSTGYTHYADSVKGRFTISRDNSKNTLYLQMNSLRAEDTAVYYCARRALTFDYWGQGTLVTVSS VL: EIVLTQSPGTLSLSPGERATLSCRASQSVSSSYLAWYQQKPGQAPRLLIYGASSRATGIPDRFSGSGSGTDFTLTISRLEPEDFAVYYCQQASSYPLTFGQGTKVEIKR | 170 |
